Assay: viability of PTEN-null HCT116 cells – cell-based, HCT116 clonal line, CellTiter-Glo, pilot screen (AID 824);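 note: 0% = 20 µM Hyamine control and 100% = vehicle cell control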
Details: HCT116 PTEN-deleted viability, 60 h, at 10 µM
Results filed as inconclusive are left out. The source made the active and inactive calls.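 Rule for the calls: active = viability at or below 27.92% in each of two runs, the all-compound median minus 4 SD; inconclusive = no clear call, values can overlap the other calls; inactive = the rest.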
Possible outcomes: 1 for active, -1 for inactive

{"COMPOUND": "O=c1nc2n(c3sc4c(c13)CCC4)Cc1ccccc1-2", "CATEGORY": -1}
{"COMPOUND": "CC1CCC(NC(=O)C2(C)CCC(=O)N2Cc2cccnc2)CC1 (stereo not given)", "CATEGORY": -1}
{"COMPOUND": "Cc1[nH]nc2c1C(=O)CC(C)(C)C2", "CATEGORY": -1}
{"COMPOUND": "CCCCN=CC1=C(O)C(C(=O)OC)C(C)(C)CC1=O (stereo not given)", "CATEGORY": -1}
{"COMPOUND": "Cc1ccc2oc(=O)n(CC(=O)O)c2c1", "CATEGORY": -1}
{"COMPOUND": "c1csc(Cc2nc3ccccc3[nH]2)c1", "CATEGORY": -1}
{"COMPOUND": "CCCSc1nnc2nc3c(nn12)c1ccccc1n3C", "CATEGORY": -1}
{"COMPOUND": "O=C(c1ccccc1S(=O)(=O)NCc1ccccc1)N1CCCCC1", "CATEGORY": -1}
{"COMPOUND": "CCOC(=O)c1ccc(N=c2sc(C(=O)OC)cc(=O)n2Cc2ccco2)cc1", "CATEGORY": 1}
{"COMPOUND": "CC1CCc2nn(CC(=O)N3CCN(C(=O)c4ccco4)CC3)cc2C1 (stereo not given)", "CATEGORY": -1}
{"COMPOUND": "COc1ccc(C2C(C(=O)Nc3ccc(F)cc3)=C(C)Nc3nc(CCCO)nn32)cc1 (stereo not given)", "CATEGORY": -1}
{"COMPOUND": "Cc1ccc(-n2ncc3c(N4CCCC(C)C4)ncnc32)c(C)c1 (stereo not given)", "CATEGORY": -1}
{"COMPOUND": "Clc1ccc(Nc2ncnc3c2cnn3-c2ccccc2)cc1", "CATEGORY": -1}
{"COMPOUND": "CCSC1=C(C#N)C(c2ccc(F)cc2)CC(=O)N1 (stereo not given)", "CATEGORY": -1}
{"COMPOUND": "CC1(C)CC(=O)c2cnc(NC(=O)Cc3ccc(Cl)cc3)nc2C1", "CATEGORY": -1}
{"COMPOUND": "Cc1cccc(C)c1OCC(O)Cn1ccnc1C (stereo not given)", "CATEGORY": -1}
{"COMPOUND": "COc1cc(Cl)c(S(=O)(=O)n2cnc(C)c2)cc1Cl", "CATEGORY": -1}
{"COMPOUND": "COC(=O)C1(C#N)C(c2ccccc2)C1(C(=O)OC)C(=O)OC (stereo not given)", "CATEGORY": -1}
{"COMPOUND": "CCOC(=O)C1CCN(S(=O)(=O)C(F)(F)c2nc3ccccc3s2)CC1", "CATEGORY": -1}
{"COMPOUND": "O=C(O)COc1ccc(S(=O)(=O)NCCc2ccccc2)cc1", "CATEGORY": -1}
{"COMPOUND": "CC1CCCN(C(=O)CN2C(=O)c3ccccc3C2=O)C1 (stereo not given)", "CATEGORY": -1}
{"COMPOUND": "CC1CN(Cc2nc3c(c(=O)n(C)c(=O)n3C)n2Cc2cccc(Cl)c2)CC(C)O1 (stereo not given)", "CATEGORY": -1}
{"COMPOUND": "CC12CCC(C(=O)Nc3ccc4c(c3)OCCO4)(OC1=O)C2(C)C (stereo not given)", "CATEGORY": -1}
{"COMPOUND": "O=C1NC(=O)C(CC(=O)N(Cc2ccco2)C2(C(=O)NC3CCCC3)CCCCC2)N1 (stereo not given)", "CATEGORY": -1}
{"COMPOUND": "CCOc1ccc(-c2nc(-c3ccccc3)no2)cc1OCC", "CATEGORY": -1}
{"COMPOUND": "CCn1cc(C(=O)NCCCOC)c(=O)c2cc(S(=O)(=O)N(C)C)ccc21", "CATEGORY": -1}
{"COMPOUND": "C=CCSc1nnc(Cc2c(C)[nH]c3ccccc23)o1", "CATEGORY": -1}
{"COMPOUND": "Cc1ccc(C)c2[nH]c(=O)c(CCNC(=O)c3ccc(S(=O)(=O)N(C)C)cc3)cc12", "CATEGORY": -1}
{"COMPOUND": "CCOC(=O)Nc1sc(NS(=O)(=O)c2ccccc2)nc1C", "CATEGORY": -1}
{"COMPOUND": "COc1ccccc1C1N(c2cc(Cl)ccc2OC)C(=O)C2CCCN21 (stereo not given)", "CATEGORY": -1}
{"COMPOUND": "N#Cc1nc(-c2ccc(F)cc2)oc1NCc1ccccc1", "CATEGORY": -1}
{"COMPOUND": "COc1ccc(CCNC(=O)CCS(=O)(=O)c2cccc3nsnc23)cc1OC", "CATEGORY": -1}
{"COMPOUND": "Cc1ccc(C(=O)Nc2c(C(=O)N3CCOCC3)cnn2-c2ccccc2)cc1", "CATEGORY": -1}
{"COMPOUND": "O=C(CCNS(=O)(=O)c1cccc2nsnc12)Nc1ccc2c(c1)OCCO2", "CATEGORY": -1}
{"COMPOUND": "c1ccc2c(c1)nc(NC1CCCCC1)c1nncn12", "CATEGORY": -1}
